Target: GPR39 (Homo sapiens, UniProt O43194)
Sequence (O43194 whole entry): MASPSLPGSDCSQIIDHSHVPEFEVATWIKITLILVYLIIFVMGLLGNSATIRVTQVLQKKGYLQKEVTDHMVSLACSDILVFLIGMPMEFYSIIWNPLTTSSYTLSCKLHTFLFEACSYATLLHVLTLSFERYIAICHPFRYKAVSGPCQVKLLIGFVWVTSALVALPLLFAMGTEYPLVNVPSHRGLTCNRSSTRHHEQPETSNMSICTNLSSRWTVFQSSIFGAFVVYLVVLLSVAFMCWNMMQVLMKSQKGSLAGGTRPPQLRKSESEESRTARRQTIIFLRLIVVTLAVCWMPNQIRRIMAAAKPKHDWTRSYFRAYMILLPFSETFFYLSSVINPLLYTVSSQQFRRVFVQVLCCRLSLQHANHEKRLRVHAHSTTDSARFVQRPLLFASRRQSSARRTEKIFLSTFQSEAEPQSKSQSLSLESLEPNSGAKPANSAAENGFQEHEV
Assay: luciferase assay system (SRE luciferase reporter gene) for GPR39 in CV-1 cells
Details: Reporter gene assay EC50, Table 4, luciferase assay system
pEC50: −log10 of the molar value.
assay_endpoint: pEC50

CCCCCCCC(=O)NCCCC[C@H](NC(=O)[C@@H](N)Cc1cn(C(c2ccccc2)c2ccccc2)cn1)C(=O)N[C@H](Cc1ccc(C)cc1)C(=O)N[C@@H](Cc1ccc(O)cc1)C(=O)O [HKFY-34]: 8.17
